- STUDY SYSTEM: Proteasome subunit beta (Trypanosoma cruzi)
- TEST NAME: Trypanosoma cruzi proteasome chymotrypsin-like activity (TcProtChymo) assay.
- Type: functional
- Parameters: scale not given: in the data most compounds retested in dose-response had high values
- CONDITION DETAILS: 9.37 µM
QUANTITY: Percent Effect
Param answer (str): number followed by unit.

// worked examples, Percent Effect included
COc1cccc(CN(C)Cc2ccc(C#N)cc2)c1OC ... 7.86%
O=C(NCCc1csc(N2CCCC2)n1)N(C1CCCC1)C1CC1 ... 27.4%
CS(=O)(=O)NCCNC(=O)C1(c2cccc(Cl)c2)CC1 ... 10.9%

Identify measured Percent Effect corresponding to CNC(=O)[C@H]1C[C@@H]2CN(C(=O)Nc3ccc(F)cc3)C[C@H]1O2 9.05%

Retrieve Percent Effect measured for Cn1cc(-c2csc(CN3CCOCC3)n2)cn1 and print it. 1.58%

Output measured Percent Effect for this item: COCC(=O)N(C)Cc1ccc(Cl)c(Cl)c1 21.2%

Look up Percent Effect of CC1=N[C@@]2(CC[C@@H]3CN(CC(=O)N(C)C)C[C@@H]32)C(=O)N1CC(C)C and report it. 9.43%

Identify the reported Percent Effect for the following entry. CC(=O)c1cccc(OCC(=O)NS(=O)(=O)c2ccc(C)s2)c1 3.85%

Consider the molecule O=C(CCCc1nnc(-c2ccccc2)o1)N1CCN(CCO)CC1 and give its recorded Percent Effect. 12.2%
